test system: E. coli HB4 KPC-3; assay: MIC of recombinant strains; format: cell-based; conditions: Escherichia coli, HB4KPC3; E. coli HB4 expressing KPC-3 in pUCP24
measurement-kind: MIC (mg/L)

>>> experimental_value("C[C@@H](O)[C@H]1C(=O)N2C(C(=O)O)=C(SCCN=CN)C[C@H]12 [IMI, imipenem]")
16
>>> experimental_value("CO/N=C(\\C(=O)N[C@@H]1C(=O)N2C(C(=O)[O-])=C(C[N+]3(C)CCCC3)CS[C@H]12)c1csc(N)n1 [FEP, cefepime]")
128
>>> experimental_value("C[C@H]1[C@H](NC(=O)/C(=N\\OC(C)(C)C(=O)O)c2csc(N)n2)C(=O)N1S(=O)(=O)O [AZT, aztreonam]")
256
